Each entry below lists one item and its recorded protein stability index value.
B1: KRT13 (parent)
chain: TSSASVTTTSNASGRRTSDVRRP

Variants of: B1
assay explanation: protein stability index of a GFP-peptide fusion (GPS, HEK-293T) (PSI 1-6); higher = more stable;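 further: lentivirally expressed fusions sorted by FACS into six bins by GFP to DsRed ratio, PSI derived from sequencing read proportions per bin multiplied by bin number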
measurement parameters: c terminus: native
assay endpoint: protein stability index

INSERT INTO assay_data (residue_change, assay_endpoint, readout_value) VALUES
  ('V6P', 'protein stability index', 2.51),
  ('T17M', 'protein stability index', 2.44),
  ('P23Y', 'protein stability index', 4.86),
  ('T1F', 'protein stability index', 4.09),
  ('T7N', 'protein stability index', 1.45),
  ('N11G', 'protein stability index', 2.7),
  ('S13L', 'protein stability index', 2.47),
  ('P23S', 'protein stability index', 2.36),
  ('T7F', 'protein stability index', 2.24),
  ('S5A', 'protein stability index', 2.49);

The reported measurements were obtained from the supplement of paper PMC10567573.
